- System: SNB-75 CNS
- assay_overview: NCI tumour cell line growth inhibition, 48 h
Give measured TGI for each item. Keep answers brief.

Before answering, review these 3 worked examples.
NC(N)=N/N=C/c1c(-c2ccc(Cl)cc2)nc2sc(Cl)cn12: 2.72 µM
CC(C)(C)c1cc(C(OCCl)(C(F)(F)F)C(F)(F)F)c2c(c1)C(C(F)(F)F)(C(F)(F)F)OC21c2ccccc2C(=O)c2ccccc21: > 100 µM
CCCCOc1ccc(S(=O)(=O)/N=C(\N)Nc2ccc(Cl)cc2)cc1: 36.3 µM

I have 5 compounds here; please give me TGI for each one.
1. CC/C(=C(/c1ccc(/C=C/C(=O)O)cc1)c1ccc2[nH]ncc2c1)c1ccc(F)cc1Cl
2. Cc1n(Cc2ccc3ccccc3n2)cc[n+]1Cc1ccc2ccccc2c1
3. C1CCN2CC3CONC3C2C1 (stereo unspecified)
4. Cc1cc2c3c(c1)CCCN3CCC2
5. Nc1c(C(=O)Nc2ccccc2O)[n+]([O-])c2ccccc2[n+]1[O-]

1: 26.3 µM; 2: 3.39 µM; 3: > 100 µM; 4: > 10 µM; 5: > 100 µM

Please state TGI for every compound in the list that follows.
1. CN(C)CCNC(=O)c1cccc2cc3ccc4ccccc4c3nc12
2. CC(C)CCCC(C)[C@H]1CCC2[C@@H]3CCC4Cc5nc6c(nc5C[C@]4(C)C3CC[C@@]21C)CC1CC[C@@H]2C(CC[C@@]3(C)C2CC[C@@H]3O)[C@@]1(C)C6 (stereo partly specified)
3. CCCCC1Cc2cc(OC)ccc2-c2n1c1cc(OC)ccc1[n+]2C (stereo unspecified) (tested in a mixture with another compound)
4. CCN1C(=O)N2C(OC)c3ccccc3C(Br)C2(OC)C1=O (stereo unspecified)
5. O=C(Nc1nc2c(s1)CCc1c-2c(Br)n(Cc2ccccc2)c1Br)c1ccccc1
6. C=CC(C)(O)CCC1C(=C)C(O)CC2C(C)(C)CCCC12C (stereo unspecified)
7. COc1cccc(-c2[nH]c3cc4c(cc3c(=O)c2C(=O)O)OCO4)c1

1: 0.399 µM; 2: > 100 µM; 3: 87.6 µM; 4: > 100 µM; 5: 4.74 µM; 6: > 100 µM; 7: > 100 µM

Please report TGI for every entry that follows.
1. COc1cccc2c1[C@H]1OC(=O)NC1CCCCC2 (stereo partly specified)
2. CCOC(=O)c1cc2cc(OCc3ccccc3)ccc2[nH]1
3. CC(N)=O.[Cl][Pt][Cl].[NH-]c1ccn(C2OC(CO)C(O)C2O)c(=O)n1 (stereo unspecified)
4. COc1ccc2nc(-c3ccc(O)cc3)ccc2c1
5. O=C1c2ccccc2-n2c1nc1ccc(Cl)cc1c2=O

["> 100 µM", "> 100 µM", "> 100 µM", "> 100 µM", "75.5 µM"]

The value of TGI recorded for `O=C1c2ccoc2C(=O)c2oc(=O)ccc21` when tested on SNB-75 CNS reads 15.6 µM
